Molecular target: T1, human CD3 expressed on cells (human, UniProt P07766 23-207; P04234 22-171; P09693 23-182)
T1 construct: whole, on cells; CD3 complex on Jurkat cells and on human primary T cells
T1 sequence (P07766 23-207, chain 1 of 3): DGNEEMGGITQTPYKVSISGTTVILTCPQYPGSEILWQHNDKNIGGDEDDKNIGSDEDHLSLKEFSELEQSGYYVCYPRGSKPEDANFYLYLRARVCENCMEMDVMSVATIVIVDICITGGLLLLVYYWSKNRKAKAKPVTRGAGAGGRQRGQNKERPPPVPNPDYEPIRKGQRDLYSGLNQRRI
T1 sequence (P04234 22-171, chain 2 of 3): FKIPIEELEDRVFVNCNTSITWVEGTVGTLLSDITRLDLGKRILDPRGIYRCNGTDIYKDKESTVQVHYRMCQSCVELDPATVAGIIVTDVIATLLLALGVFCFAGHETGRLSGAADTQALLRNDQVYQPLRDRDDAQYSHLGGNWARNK
T1 sequence (P09693 23-182, chain 3 of 3): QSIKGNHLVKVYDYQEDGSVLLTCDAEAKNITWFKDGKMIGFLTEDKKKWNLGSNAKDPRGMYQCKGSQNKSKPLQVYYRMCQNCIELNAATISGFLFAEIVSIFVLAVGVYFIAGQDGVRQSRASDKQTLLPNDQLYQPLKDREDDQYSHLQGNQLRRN
Assay: flow cytometry, 25 nM
Human primary T Cell Binding (FOI) for assorted binders
readout_kind: Human primary T Cell Binding (FOI)

1. mAb 128 (antibody, V domains shown) VH: EVQLVESGGGLVQPGRSLRLSCAASGFTFDDYTMHWVRQAPGKGLEWVSGISWNSGSIGYADSVKGRFTISRDNAKNSLYLQMNSLRAEDTALYYCAKDSSGYGYYYYYSMDVWGKGTTVTVSS VL: EIVMTQSPATLSVSPGERATLSCRASQSVSSNLAWYQQKPGQAPRLLIYGASTRATGIPARFSGSGSGTEFTLTISSLQSEDFAVYYCQLYYNWPHFGQGTRLAIK
101
2. mAb 54 (antibody, V domains shown) VH: EVQLEESGGGLVQPGGSLRLSCAASGFTFSRYSMNWVRQAPGKGLEWFSYISSSSRTIYYADSVKGRFTMSRDNAKNSLYLQMNSLRDEDTAVYFCARGDYYDSEGMDVWGKGTTVTVSS VL: DIQMTQSPSTLSASVGDRVTITCRASQTITTWLAWYQQKPGKAPKLLIYKASTLESGVPSRFSGSGSGTEFTLTISSLQPDDFATYHCQQYKTFSYTFGQGTKLDIK
98.5
3. mAb 50 (antibody, V domains shown) VH: QAQLVQSGSELKKPGASVKVSCKASGYTFTRHAMNWVRQAPGQGLEWMGWINTNTGNPTYAQGFTGRFVFSLDTSVTTAYLQISSLKAEDTAVYYCAREGDYDFWSGFFNFDYWGQGTLVTVSS VL: DIQMTQSPSSLSASVGDRVTITCRASQGIRNDLGWFQQKPGKAPTRLIYAASSLQSGVPSRFSGSGSGAEFTLTISSLQPEDFATYYCLQHNSYPRTFGQGTKVEIK
86.4
